B1: Far upstream element-binding protein 2, residues 142 to 214; numbered along this chain, Q92945 (parent)
chain: RTSMTEEYRVPDGMVGLIIGRGGEQINKIQQDSGCKVQISPDSGGLPERSVSLTGAPESVQKAKMMLDDIVSR

- Variants of: B1
- ASSAY SUMMARY: abundance fitness (aPCA) (normalised: wild type 0, dead -1); higher = more abundant; growth selection in yeast, the domain comes from the species named
- CONDITION LABEL: Homo sapiens
abundance fitness of -0.1 or higher: met. Under -0.1: not met.

D69E    met

Decide: abundance fitness of `Q25L` >= -0.1?
met

Decide: abundance fitness of `R49V` >= -0.1?
not met

Decide: abundance fitness of `I39G` >= -0.1?
not met

Decide: abundance fitness of `R49D` >= -0.1?
not met

Decide: abundance fitness of `V37I` >= -0.1?
met
